These measurements were taken from paper PMC6572573.

# ASSAY_TARGET: BCRP (Rattus norvegicus)
# Construct: from tissue; host or cells: living male Sprague-Dawley rats (intestine)
# Sequence (Q80W57 whole entry): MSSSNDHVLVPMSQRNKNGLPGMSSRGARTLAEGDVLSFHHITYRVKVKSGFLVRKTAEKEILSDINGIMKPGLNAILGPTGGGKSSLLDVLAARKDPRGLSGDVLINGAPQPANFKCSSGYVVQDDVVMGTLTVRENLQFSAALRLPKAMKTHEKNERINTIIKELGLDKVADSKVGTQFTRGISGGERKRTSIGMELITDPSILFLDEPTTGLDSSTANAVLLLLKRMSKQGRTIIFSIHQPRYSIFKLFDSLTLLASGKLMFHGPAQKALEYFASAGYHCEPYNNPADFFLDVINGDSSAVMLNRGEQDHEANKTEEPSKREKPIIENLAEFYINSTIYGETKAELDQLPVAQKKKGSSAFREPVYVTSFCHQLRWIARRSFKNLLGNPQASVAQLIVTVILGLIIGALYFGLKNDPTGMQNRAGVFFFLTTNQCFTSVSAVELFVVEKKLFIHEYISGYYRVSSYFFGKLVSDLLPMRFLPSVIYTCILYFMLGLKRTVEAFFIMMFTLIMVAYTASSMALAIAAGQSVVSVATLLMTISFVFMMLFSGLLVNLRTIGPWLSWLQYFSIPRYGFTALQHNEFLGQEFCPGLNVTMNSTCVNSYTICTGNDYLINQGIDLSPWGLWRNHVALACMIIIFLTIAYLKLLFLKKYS
# RUN_DESCRIPTION: Oral pharmacokinetics of topotecan (BCRP substrate) in rats with/without co-administered LW6 formulations
# Type: in vivo
# COND: male, Sprague-Dawley, rat, plasma, oral topotecan 10 mg/kg, with or without LW6 20 mg/kg (pure or F8-SD), mean ± SD (n = 3)
RECORDED_METRIC: Tmax (min)
Report the figure in min without appending any unit label.

**Q:** Write down the reported Tmax of CC[C@@]1(O)C(=O)OCc2c1cc1n(c2=O)Cc2cc3c(CN(C)C)c(O)ccc3nc2-1 [Topotecan, topotecan] , test system: BCRP (Rattus norvegicus).
**A:** 24
